Target: Dihydroorotate dehydrogenase (quinone), mitochondrial (Plasmodium falciparum (isolate 3D7)) (UniProt Q08210)
Sequence (Q08210 whole entry, looked up): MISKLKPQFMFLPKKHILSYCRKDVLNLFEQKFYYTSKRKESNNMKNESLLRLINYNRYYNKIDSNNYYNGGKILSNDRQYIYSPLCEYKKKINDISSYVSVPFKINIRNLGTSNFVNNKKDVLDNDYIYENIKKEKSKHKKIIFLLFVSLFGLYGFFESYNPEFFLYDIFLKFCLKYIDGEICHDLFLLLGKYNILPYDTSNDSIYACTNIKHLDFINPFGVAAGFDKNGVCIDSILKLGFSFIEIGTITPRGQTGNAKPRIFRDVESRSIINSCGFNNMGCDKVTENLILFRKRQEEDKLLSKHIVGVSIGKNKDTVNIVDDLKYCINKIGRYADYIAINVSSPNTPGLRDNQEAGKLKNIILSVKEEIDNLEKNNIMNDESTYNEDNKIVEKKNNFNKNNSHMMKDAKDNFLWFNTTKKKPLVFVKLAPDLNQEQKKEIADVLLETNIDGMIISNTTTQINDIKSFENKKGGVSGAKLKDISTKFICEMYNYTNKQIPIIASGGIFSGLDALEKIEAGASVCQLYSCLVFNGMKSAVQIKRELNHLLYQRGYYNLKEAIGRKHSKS
Experiment: PfDHODH enzyme inhibitors, primary screen, biochemical, C-terminal His tag, absorbance 600 nm (AID 1175);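 note: recombinant parasite enzyme with a five histidine tag at its C terminus; test concentration not given here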
Conditions: DCIP absorbance 600 nm, higher = more signal, called active from +8 up or from −8 down
# composite z-score per entry
The response must contain the number and no unit.

Check out these entries, answers already filled in.
[[record]]
molecule = "COC(=O)C1=CC(c2ccc(CO)cc2)=CC(C2CC2)N(Cc2sc3ccccc3c2Cl)C=C1C(=O)OC (configuration not stated)"
assay_metric = "composite z-score"
result_number = -0.245

[[record]]
molecule = "Cc1ccc(S[C@]2(C(=O)NCCN3CCOCC3)CC(=O)N(C3Cc4ccccc4C3)[C@@H]2c2ccc(CO)cc2I)cc1"
assay_metric = "composite z-score"
result_number = -0.24


Prompt: Entry under review: "C=C(COC)/C(=C/C[C@@H](OC(C)=O)c1cccc(OCCO)c1)c1cc(C(=O)OC)ccc1OC" . Reported composite z-score?
Response: -0.733

Prompt: Look up composite z-score: C=CCC(OC(C)=O)[C@@H]1[C@@H](N(Cc2cc3ccccc3o2)C(=O)Cc2ccc(F)cc2)c2cc(OCCCO)ccc2N1C(=O)c1ccc(-c2ccccc2)cc1 (some centres not stated)
Response: -0.177

Prompt: Given the molecule O=C1OCC=C[C@H]2OC34C=CCN(Cc5ccccc5)C(=O)[C@H]3N(CCO)C(=O)[C@@H]4[C@@H]12 (some centres not stated) , what is its reported composite z-score?
Response: -0.415

Prompt: Recorded composite z-score of "CCCCCCc1nc(-c2cc(C)c(OC)c(C)c2)cc2c1[Si](C(C)C)(C(C)C)O[C@H]2c1ccccc1" , please.
Response: -0.292

Prompt: What composite z-score value was documented for this molecule, "CN(C)C(=O)[C@@]1(Cc2ccccc2N=[N+]=[N-])N=C(c2ccc(OCCCO)cc2)O[C@H]1c1ccccc1CN=[N+]=[N-]" ?
Response: -0.812
